protocol: Toxicity liver stage against HepG2, at 10uM
Format: cell-based
Design: test concentration 10 uM, cell line HepG2-A16-CD81EGFP
applied conditions: human, HepG2-A16-CD81EGFP cells; read-out: INHIBITION
Assign yes whenever cytotoxicity at 10 µM does not fall below 10%; assign no whenever it does.

Does cytotoxicity at 10 µM meet or surpass 10% for O=C(NCC1CCCO1)c1cc(-c2cccnc2)c2cnccc2n1 (stereo unspecified) ?
yes

# repeat for "CC(C)NC(=O)c1nnn(-c2ccc(F)cc2)c1C1CC1"
yes

# repeat for "COCC(=O)N1CC[C@@H]2O[C@H](COCc3csc(C)n3)CC[C@@H]21"
no

# repeat for "O=S(=O)(NCCSc1nncn1C1CC1)c1ccccc1"
no

# repeat for "CCOCCn1nc(C2CCNCC2)n(Cc2ccccc2)c1=O"
no

# repeat for CCCC1(NC(=O)C(c2ccccc2C)N(C)C)CC1 (stereo unspecified)
no

====

protocol: Toxicity liver stage against HepG2, at 10uM
Assay type: cell-based
Design: test concentration 10 uM, cell line HepG2-A16-CD81EGFP
applied conditions: human, HepG2-A16-CD81EGFP cells; read-out: INHIBITION
property label: cytotoxicity at 10 µM (%)
Field: numeric (%). Do not append units.

Use these answered entries as a reference point.
[[record]]
molecule = "O=C(C1CCC1)N1CCCC1c1nnc2n1CCCCC2 (stereo unspecified)"
property_label = "cytotoxicity at 10 µM"
reading = 1.26

[[record]]
molecule = "Cc1cnc(N2CCC3(CCCN3C(=O)c3ccco3)CC2)nc1"
property_label = "cytotoxicity at 10 µM"
reading = 6.71

[[record]]
molecule = "c1cnc(N2C[C@H]3CCN(c4cccnc4)C[C@H]3C2)nc1"
property_label = "cytotoxicity at 10 µM"
reading = -14.7

[[record]]
molecule = "Cc1cc(SCC(N)=O)nc(-c2ccc(F)cc2)n1"
property_label = "cytotoxicity at 10 µM"
reading = -3.42

[[record]]
molecule = "COCCN1CCC(CNC(=O)C2(NC(C)=O)CCCCC2)CC1"
property_label = "cytotoxicity at 10 µM"
reading = 5.46

[[record]]
molecule = "CC[C@H](C)[C@H](N)C(=O)Nc1nc(-c2cnc(N3CCOCC3)nc2)cs1"
property_label = "cytotoxicity at 10 µM"
reading = -8.72

[[record]]
molecule = "Cc1nc(C2(O)CCCNCC2)sc1CCOc1ccccc1F (stereo unspecified)"
property_label = "cytotoxicity at 10 µM"
reading = -36.5

[[record]]
molecule = "Cc1ccc(N2CCC3(CCN(C(=O)C4CCOC4)CC3)CC2)nn1 (stereo unspecified)"
property_label = "cytotoxicity at 10 µM"
reading = -0.28

[[record]]
molecule = "Cc1cccc(CN2C[C@H]3OC(=O)N(CCCN4CCOCC4)[C@H]3C2)n1"
property_label = "cytotoxicity at 10 µM"
reading = -6.85

[[record]]
molecule = "CN1C(=O)C(C)(C)COc2cc(NS(=O)(=O)c3ccccc3)ccc21"
property_label = "cytotoxicity at 10 µM"
reading = -7.89


Then there is this molecule:
Can you share its cytotoxicity at 10 µM? I mean this molecule: Cc1ccccc1N1CCN(c2cc(N(C)C)ncn2)C(C)C1 (stereo unspecified)
19.7

====

protocol: Toxicity liver stage against HepG2, at 10uM
Format: cell-based
Design: test concentration 10 uM, cell line HepG2-A16-CD81EGFP
applied conditions: human, HepG2-A16-CD81EGFP cells; read-out: INHIBITION
Assign y whenever cytotoxicity at 10 µM does not fall below -10%; assign n whenever it does.

Worked cases, answers included:
[[record]]
compound = "CC(Cn1cccn1)NCc1csc(-c2ccccc2)n1 (stereo unspecified)"
class_label = "n"

[[record]]
compound = "O=C(c1cnn2ccccc12)N1CCCC(OCc2ccccn2)C1 (stereo unspecified)"
class_label = "y"

[[record]]
compound = "Cc1nc(CC(=O)N2CCCC[C@H](N(C)C)C2)cs1"
class_label = "y"

[[record]]
compound = "O=C1NCC[C@]12CN(Cc1ccncc1)C[C@H]2c1ccccc1"
class_label = "n"


Does cytotoxicity at 10 µM meet or surpass -10% for N#Cc1ccsc1C(=O)N1CCCCC1Cn1cccn1 (stereo unspecified) ?
y

# repeat for Cc1[nH]c2cc(C3CCCCN3C(=O)C3CC3)nn2c(=O)c1C (stereo unspecified)
y

# repeat for "Cc1nccn1CCCC(=O)N1CCC2(CCC(=O)N(C(C)C)C2)CC1"
n

# repeat for c1cc(CNCC2OCCc3cn(CC4CC4)nc32)cs1 (stereo unspecified)
y

# repeat for "CN(C)[C@@H]1CCN(C(=O)NC2CCCC2)[C@H]1Cc1ccncc1"
y

# repeat for CN(C)C(=O)CC1CC2(CCN(C(=O)N(C)C)CC2)Oc2ccccc21 (stereo unspecified)
n

====

Entries annotated with measured cytotoxicity at 10 µM
protocol: Toxicity liver stage against HepG2, at 10uM
Assay type: cell-based
Design: test concentration 10 uM, cell line HepG2-A16-CD81EGFP
applied conditions: human, HepG2-A16-CD81EGFP cells; read-out: INHIBITION
Field: numeric (%). Do not append units.

Use these answered entries as a reference point.
[[record]]
molecule = "O=C(c1ncc(F)cc1F)N1CCC(c2ncc[nH]2)CC1"
property_label = "cytotoxicity at 10 µM"
reading = -3.73

[[record]]
molecule = "O=S(=O)(c1cccnc1)N1CCN(Cc2nc(-c3ccco3)cs2)CC1"
property_label = "cytotoxicity at 10 µM"
reading = 5.94

[[record]]
molecule = "Cc1csc(NCC(=O)c2c[nH]c3ccccc23)n1"
property_label = "cytotoxicity at 10 µM"
reading = 22.4


Can you share its cytotoxicity at 10 µM? I mean this molecule: "O=C(c1ccc(Cl)cc1)N1CCC(N2CCOC2=O)CC1"
7.72

# repeat for "c1ccc(CCCN2CC[C@H](c3nnc(-c4cccnc4)o3)C2)cc1"
-6.1

# repeat for "CCc1nncn1CCNC(=O)Nc1ccc2c(c1)CCCO2"
1.79

# repeat for "Cc1ccnc(N2CCC(NCCOc3ccccc3)CC2)n1"
-1.21

# repeat for "COCc1nnc2n1CCN(Cc1ccoc1)C2"
-2.56

# repeat for "O=C(NCc1cnc2n1CCN(Cc1nccs1)C2)c1ccno1"
-104

# repeat for "N#Cc1cccc(CN2C(=O)C3(CCNCC3)Nc3ccccc32)c1"
0.529

# repeat for Cn1cc(NC(=O)N2CCCC2c2cccnc2)ccc1=O (configuration not stated)
-3.73

# repeat for COc1cccc(NC(=O)N2CCC(O)(C(F)(F)F)C2)c1 (configuration not stated)
3.2

====

Entries annotated with measured cytotoxicity at 10 µM
protocol: Toxicity liver stage against HepG2, at 10uM
Assay type: cell-based
Design: test concentration 10 uM, cell line HepG2-A16-CD81EGFP
applied conditions: human, HepG2-A16-CD81EGFP cells; read-out: INHIBITION
Field: numeric (%). Do not append units.

[[record]]
compound = "CN(Cc1nc2ccsc2c(=O)[nH]1)CC1CCCCC1"
reading = -1.05

[[record]]
compound = "NC(=O)C1CCN(C(=O)NC2CCN(CC3CCCC3)C2)CC1 (configuration not stated)"
reading = 13

[[record]]
compound = "Cc1ccsc1CNC(=O)c1ccc(N2CCOC2=O)cc1"
reading = 22.2

[[record]]
compound = "COc1ccccc1CN1CCC(c2nn(CCN)c3nccnc23)C1 (configuration not stated)"
reading = -32.7

[[record]]
compound = "Cc1cncnc1C1CCN(CC(N)=O)CC1"
reading = -6.84


Can you share its cytotoxicity at 10 µM? I mean this compound: Cc1nn(C)c(C)c1C1CCCN1C(=O)c1ccc2nnc(C)n2c1 (configuration not stated)
-12.2

# repeat for Cc1noc2ncc(C(=O)NCC3CCN(C(C)C)C3)cc12 (configuration not stated)
-12.4

# repeat for "O=C(CN1CC(n2cccn2)C1)NCCc1c[nH]c2ccccc12"
-4.74

# repeat for Cc1ccc(C2CSCCN2C(=O)NCc2cccnc2)cc1 (configuration not stated)
5.48

# repeat for OCc1cc2ccccc2nc1NCC1CCN(CC(F)(F)F)C1 (configuration not stated)
-55.7

# repeat for CC1CCCN(C(=O)NCC(F)F)C1 (configuration not stated)
13.6

# repeat for "O=S(=O)(NCc1ccccc1Cn1cncn1)N1CCCCC1"
2.6

====

protocol: Toxicity liver stage against HepG2, at 10uM
Type: cell-based
Set-up: test concentration 10 uM, cell line HepG2-A16-CD81EGFP
applied conditions: human, HepG2-A16-CD81EGFP cells; read-out: INHIBITION
property label: cytotoxicity at 10 µM (%)
Field: numeric (%). Do not append units.

[[record]]
compound = "CC(C(N)=O)N(C)Cc1ccccc1C(F)(F)F (stereo unspecified)"
property_label = "cytotoxicity at 10 µM"
reading = -5.54


Then there is this compound:
Can you share its cytotoxicity at 10 µM? I mean this compound: CSCCC(Nc1nc(C)cc(C)n1)C(=O)NCC1CCOCC1 (stereo unspecified)
-3.45
